assay: Half life in mouse hepatocyte; conditions: hepatocytes
endpoint: half-life (min)

INPUT: Find the recorded half-life belonging to CCP(=O)(OC)c1ccc2nc(-c3cccnc3C(F)(F)F)oc2c1 (centres undefined) and report it.
OUTPUT: 5

[P] CCP(=O)(OC)c1ccc2oc(-c3cccnc3C(F)(F)F)nc2c1 (centres undefined)
[Q] CCP(=O)(OC)c1ccc2oc(-c3ccc(F)cc3C(F)F)nc2c1 (centres undefined)
[R] CCP(=O)(OC)c1ccc2nc(-c3ccc(F)cc3C(F)F)oc2c1 (centres undefined)
[S] CCP(=O)(OC)c1ccc2nc(-c3ccc4c(c3)OC(F)(F)O4)oc2c1 (centres undefined)
INPUT: Put the items in order so that reported half-life rises from first to last. Could you list the labels in the order requested?
OUTPUT: P, Q, R, S
(P: 4 min, Q: 13 min, R: 38 min, S: 154 min)
